Values from patent US20250027068

biological target: pooled human IgG (human IgG1,2,3 and 4)
A collection of proteins and their measured Enzyme Activity Endpoint Assay: Fc
Express the result in ng/µL but write the number alone.

PRT-104 (protein) MANQEIRYSEVTPYHVTSVWTKGVTPPAKFTQGEDVFHAPYVANQGWYDITKTFNGKDDLLCGAATAGNMLHWWFDQNKEKIEAYLKKHPDKQKIMFGDQELLDVRKVINTKGDQTNSELFNYFRDKAFPGLSARRIGVMPDLVLDMFINGYYLNVTKTQTTDVNRTYQEKDRRGGIFDAVFTRGDQSKLLTSRHDFKEKNLKEISDLIKKELTEGKALGLSHTYANVRINHVINLWGADFDSNGNLKAIYVTDSDSNASIGMKKYFVGVNSAGKVAISAKEIKEDNIGAQVLGLFTLSTGQDSWNQTN | 130

Incoming: Quickly give me recorded Enzyme Activity Endpoint Assay: Fc for PRT-284 (protein) MVTSVWTKGVTPPAKFTQGEDVFHAPYVANQGWYDITKTFNGKDDLLCGAATAGNMLHWWFDQNKEKIEAYLKKHPDKQKIMFGDQELLDVRKVINTKGDQTNSELFNYFRDKAFPNLSARRIGVMPDLVLDMFINGYYLNVYKTQTTDVNRTYQEKDRRGGIFDAVFTRGDQSKLLTSRHDFKEKNLKEISDLIKKELTEGKALGLSHTYANVRLNHVINLWGADFDSNGNLKAIYVTDSDSNASIGMKKYGVGVNSAGKVAISAKEIKEDNIGAQVLGLFTLSTGQDSWNQTN
Outgoing: 184
